- System: U2OS
- METHOD: Multiplex assay against U2OS
- Type: toxicity, cell-based
- SETTINGS: human, 12 h, 10 µM, compound concentration 10 uM, replicate 1
Use Population Tubulin-Different-Phenotype (%) to assign classes; range list: low value: < 30%; medium value: ≥ 30% and < 90%; high value: ≥ 90%

Consider the following illustrative entries.
{"columns": ["COMPOUND", "TESTED_ON", "DISCRETE_LABEL"],
 "data": [
  ["CCOc1cc(N2CCC(O)CC2)ccc1Nc1ncc2c(n1)N(C1CCCC1)CCC(=O)N2C", "U2OS", "low value"],
  ["CCCn1c(=O)c2[nH]c(C34CC5CC(CC3C5)C4)nc2n(CCC)c1=O", "U2OS", "high value"],
  ["Cc1cn(-c2cc(NC(=O)c3ccc4c(c3)CN(c3cncnc3)C[C@@H]4C)cc(C(F)(F)F)c2)cn1", "U2OS", "low value"],
  ["CCOc1cc2ncc(C#N)c(Nc3ccc(OCc4cccc(F)c4)c(Cl)c3)c2cc1NC(=O)/C=C/CN(C)C", "U2OS", "high value"],
  ["CC(=O)c1cc(-c2cc(C(=O)NC3CC3)ccc2C)c2ncccn12", "U2OS", "low value"]
]}

Inquiry: The entry to classify is Cc1nc(Cc2cccc(C(F)(F)F)c2)sc1-c1ccc(C(N)=O)nc1 [TP-024n] ; which class holds it?
Reply text: low value

Inquiry: Input "CC(C)N1CCC(C)(C)c2cc(C#Cc3ccc(C(=O)O)cc3)ccc21"
Reply text: low value

Inquiry: Input "CN(C)CCOc1ccc(-c2nc(-c3ccncc3)c(-c3ccc4c(c3)CC/C4=N\O)[nH]2)cc1"
Reply text: low value

Inquiry: Input "O=C(O)c1ccc2cc(-c3ccc(O)c(C45CC6CC(CC(C6)C4)C5)c3)ccc2c1"
Reply text: low value

Inquiry: Input CCC(=O)O[C@]1(C(=O)SCF)[C@H](C)C[C@H]2[C@@H]3C[C@H](F)C4=CC(=O)C=C[C@]4(C)[C@@]3(F)[C@@H](O)C[C@@]21C [FLUTICASONE PROPIONATE]
Reply text: medium value

Inquiry: Input "Nc1ccc(C(=O)Nc2cccc(-c3nc(N4CCOCC4)c4oc5ncccc5c4n3)c2)cn1"
Reply text: high value
